Hey, just so you know, these numbers are from ChEMBL document CHEMBL1133918.

System: A498
Assay: Tested for cytostatic activity against Renal A-498 cell line of NCI 60 tumor cell line panel
Format: functional
Conditions: Homo sapiens
result.type: GI50 (nM)
Only the number, expressed in nM, is required.

# smiles.representation, observed.value
data = [
    ("O=C1c2scc(-c3ccccc3)c2-n2cccc21", 1580),
    ("O=C1c2scc(-c3ccc(F)cc3)c2-n2cccc21", 1580),
    ("COc1ccc(-c2csc3c2-n2cccc2C3=O)cc1", 631),
]

Pending compound:
Which value of GI50 has been reported for O=C1c2scc(-c3ccc(Cl)cc3)c2-n2cccc21 in the records?
1000

---

Tested on: OVCAR-3
Assay: Tested for antiproliferative activity against Ovcar-3 tumoral cell line
Format: functional, cell-based
Settings: Homo sapiens
result.type: pIC50
// pIC50 here means minus log10 of the molar concentration (mol/L)

Reported pIC50, compound COc1ccc(-c2csc3c2-n2cccc2C3=O)cc1O : ____
7.51
